Where do these numbers come from? They come from the supplement of paper PMC12764529.

Listed here are sequences together with their documented folding stability dG unfold.
test: folding stability dG unfold from trypsin proteolysis; higher = more stable

{"columns": ["Item Sequence", "folding stability dG unfold"],
 "data": [
  ["SAGGSAGGMRLEIVVEMSEEEARELAEALRRELEERGYRVRVEVRRLPDGRLVVRVEIEPAPEPSAGGSAGG [r6_597_TrROS_Hall]", "4.47 kcal/mol"],
  ["SAGGKEYRNPENGQKIPPGDTEEEREKHAREHAKPVIVPIEIPIVIKFGDVIFPIPITFEIPLTPGGSAGGS [r16_387_TrROS]", "0.0408 kcal/mol"],
  ["SAGGSAGGSAAKIELEDGTLRITLTRTVRDPATGETHTETLTLEIKLPPAPPPVVVVSPEDLSAGGSAGGSA [r18_501_TrROS_Hall]", "2.32 kcal/mol"],
  ["SAGGSAGGSAGKKIPKKIIPKINLKVELVKSKIYYDKKKKKIVKIEYEFKITYPNGFKATSAGGSAGGSAGG [r11_890_TrMRF]", "1.44 kcal/mol"],
  ["SAGGSAGGSAGMIVLFPLEEKKFIIYDPETGKVEEIEGTPEEVLEYAKKKYPDKEVYLLPSAGGSAGGSAGG [r11_614_TrMRF]", "3.25 kcal/mol"],
  ["SAGGSMKPVKKTIVILKPSSVTEEEVKEEVVEKAKELGLKVKPIRTEVYPLPDYYLVVVEVEIEVPPESAGG [r13_351_TrMRF]", "1.56 kcal/mol"]
]}

Here is another sequence to look at.
query: Reported folding stability dG unfold for SAGGSAGGMVTFDTPEELEALIEELLARHPRDVPVDVTIESEDSRYTIKVAPERVEEISESEGSSAGGSAGG [r6_289_JUSTAS] : what is it?
result: -0.763 kcal/mol

====

assay: folding stability dG unfold (combined trypsin and chymotrypsin); higher = more stable
Metric Name: folding stability dG unfold (kcal/mol)
Write it as a number; the unit kcal/mol goes unstated.

{"columns": ["Item Sequence", "Unit Name", "folding stability dG unfold"],
 "data": [
  ["SAPDWVKIKFPFRFYNPDPDGKPMAKMKLEIEVYPSPGAYMAKIEDPNFGMKITFPFDSPEEVKDFLQNSAG [r14_508_TrROS]", "kcal/mol", 1.23],
  ["KIPITIEEDPEDKMYELRVPDGMPIQIQRSKDGYRVSIWNPDNGKPREIPITKKDLKDLLSNPGFWIEIYKS [r1_18_TrROS]", "kcal/mol", 1.77],
  ["SAGGSAGGSAGMKIEIELDENGELRIRITVYNKETKEEVEEFEFTLPLEELEEELRKLLESAGGSAGGSAGG [r11_376_TrROS_Hall]", "kcal/mol", 3.5]
]}

Here is another sequence to look at.
query: Reported folding stability dG unfold for NWYIDIDEIKEAINDAPPGDEVELPFKFYDPDDGQKFKFRVTVEVNPNGKLTSVRIQHPGSGKPHAEINLKS [r1_165_TrROS] : what is it?
result: 0.982

====

Listed here are sequences together with their documented folding stability dG unfold.
assay: folding stability dG unfold from chymotrypsin proteolysis; higher = more stable
Write it as a number; the unit kcal/mol goes unstated.

{"columns": ["Item Sequence", "folding stability dG unfold, kcal/mol"],
 "data": [
  ["SAGGSAGGSAGGMTAKEIAEKLGLPPGAKVVKIEYDKETNTFYIVIEVDGELKTYRIDVSAGGSAGGSAGGS [r10_17_TrROS_Hall]", 4.76],
  ["SAPFTATETVVTEEEDPATGLTRIPVEMTVDDHPVTGEGVRDPADPSRVSFSITFPDSDLTLTGEEPLPSAG [r14_178_JUSTAS]", -0.0428],
  ["SAGGGEYYAIVRIEVKDPESEETSELELVIPVEGLSEEEALEIARAIAETFPKENVKAEVEIVPRELSAGGS [r16_774_TrMRF]", 0.896]
]}

query: Reported folding stability dG unfold for SAGGSAGGSAMTTTSTSTYPDSITTTTTTTVDGTYIITTTTFYPATGTTTTTTTTLPPSLTSAGGSAGGSAG [r3_316_JUSTAS] : what is it?
result: 1.99

query: Reported folding stability dG unfold for SAGGMEEIEPVTITITVVDEETGEKVEIKITVPKEEITRIEIKPDGTIRIYFKENNEVIEIKLEDIKSAGGS [r16_410_TrROS_Hall] : what is it?
result: 4.22

query: Reported folding stability dG unfold for SAGGSAGGSAGMKTRVTTFTYTEPVLLPDTGELRTVTTTVTFNKPLPEEPLFFTNTPNAGSAGGSAGGSAGG [r17_493_JUSTAS] : what is it?
result: 0.149

query: Reported folding stability dG unfold for SAGGPKVEIVDITVTEEEVNGKKKKTVTVKVKLENGETLTITMSEEELKKLGLSVEEIAKKLAKKLKSAGGS [r16_625_TrROS_Hall] : what is it?
result: 2.38
